The reported measurements were obtained from paper PMC8510478.

test system: AGE formation in human serum albumin (HSA)/glucose or fructose; assay: Inhibitory effect on AGE formation (HSA with glucose or fructose, fluorescence); format: biochemical; conditions: HSA/fructose, 60 °C, 40 h; means ± SE (n = 3); read-out: Inhibitory Effects on AGE Formation IC50, Fructose
Endpoint: pIC50
Hey, just a heads up that pIC50 is the negative log base 10 of the concentration in molar.

What does the data say about its pIC50? Entry: O=C(OC1O[C@@H]2COC(=O)c3cc(O)c(O)c(O)c3-c3c(cc(O)c(O)c3O)C(=O)O[C@H]2[C@H](OC(=O)c2cc(O)c(O)c(O)c2)[C@H]1OC(=O)c1cc(O)c(O)c(O)c1)c1cc(O)c(O)c(O)c1 (some centres unmarked)
6.52

What does the data say about its pIC50? Entry: `O=C(O[C@@H]1O[C@@H]2COC(=O)c3cc(Oc4ccc(O)c(O)c4O)c(O)c(O)c3-c3c(cc(O)c(O)c3O)C(=O)O[C@H]2[C@H](OC(=O)c2cc(O)c(O)c(O)c2)[C@H]1OC(=O)c1cc(O)c(O)c(O)c1)c1cc(O)c(O)c(O)c1`
6.52

----------
test system: AGE formation in human serum albumin (HSA)/glucose or fructose; assay: Inhibitory effect on AGE formation (HSA with glucose or fructose, fluorescence); assay type: biochemical; conditions: HSA/glucose, 60 °C, 40 h; means ± SE (n = 3); read-out: Inhibitory Effects on AGE Formation IC50, Glucose
Where a name gives a salt, the structure may show the parent alone.
Endpoint: pIC50
Hey, just a heads up that pIC50 is the negative log base 10 of the concentration in molar.

What does the data say about its pIC50? Entry: O=C(OC[C@H]1O[C@@H](OC(=O)c2cc(O)c(O)c(O)c2)[C@H](OC(=O)c2cc(O)c(O)c(O)c2)[C@@H](OC(=O)c2cc(O)c(O)c(O)c2)[C@@H]1O)c1cc(O)c(O)c(O)c1 [Compound 5, 1,2,3,6-tetra-O-galloyl-β-D-glucose]
6.52

What does the data say about its pIC50? Entry: N=C(N)NN [Aminoguanidine, aminoguanidine hydrochloride, reference compound]
3.59

What does the data say about its pIC50? Entry: O=C(OC[C@H]1O[C@@H](OC(=O)c2cc(O)c(O)c(O)c2)[C@H](OC(=O)c2cc(O)c(O)c(O)c2)[C@@H](OC(=O)c2cc(O)c(O)c(O)c2)[C@@H]1OC(=O)c1cc(O)c(O)c(O)c1)c1cc(O)c(O)c(O)c1 [1,2,3,4,6-Penta-O-galloyl-β-D-glucose, reference compound]
6.70

What does the data say about its pIC50? Entry: O=c1oc2c(O)c(O)cc3c(=O)oc4c(O)c(O)cc1c4c23 [Ellagic acid, reference compound]
5.74

What does the data say about its pIC50? Entry: O=C(O[C@@H]1O[C@@H]2COC(=O)c3cc(Oc4ccc(O)c(O)c4O)c(O)c(O)c3-c3c(cc(O)c(O)c3O)C(=O)O[C@H]2[C@H](OC(=O)c2cc(O)c(O)c(O)c2)[C@H]1OC(=O)c1cc(O)c(O)c(O)c1)c1cc(O)c(O)c(O)c1 [Compound 8, decarboxylated rugosin A]
6.52

What does the data say about its pIC50? Entry: O=C(OC[C@H]1O[C@@H](OC(=O)c2cc(O)c(O)c(O)c2)[C@H](OC(=O)c2cc(O)c(O)c(O)c2)[C@@H](O)[C@@H]1O)c1cc(O)c(O)c(O)c1 [Compound 3, 1,2,6-tri-O-galloyl-β-D-glucose]
6.52

What does the data say about its pIC50? Entry: O=C(OC[C@H]1O[C@@H](OC(=O)c2cc(O)c(O)c(O)c2)[C@H](OC(=O)c2cc(O)c(O)c(O)c2)[C@@H](O)[C@@H]1OC(=O)c1cc(O)c(O)c(O)c1)c1cc(O)c(O)c(O)c1 [Compound 6, 1,2,4,6-tetra-O-galloyl-β-D-glucose]
6.52

What does the data say about its pIC50? Entry: O=C(OC[C@H]1O[C@@H](O)[C@H](OC(=O)c2cc(O)c(O)c(O)c2)[C@@H](O)[C@@H]1O)c1cc(O)c(O)c(O)c1 [Compound 1, 2,6-di-O-galloyl-β-D-glucose]
5.82

----------
system: AGE formation in human serum albumin (HSA)/glucose or fructose; assay: Inhibitory effect on AGE formation (HSA with glucose or fructose, fluorescence); assay type: biochemical; details: HSA/glucose, 60 °C, 40 h; means ± SE (n = 3); read-out: Inhibitory Effects on AGE Formation IC50, Glucose
// pIC50 lookup, one value per entry
Hey, just a heads up that pIC50 is the negative log base 10 of the concentration in molar.

Compound	Endpoint	Endpoint value
O=C(O)c1cc(O)c(O)c(O)c1	pIC50	4.83
O=c1oc2c(O)c(Oc3ccc(O)c(O)c3O)cc3c(=O)oc4c(O)c(O)cc1c4c23	pIC50	5.62
O=C(O[C@@H]1O[C@@H]2COC(=O)c3cc(Oc4c(C(=O)O[C@H]5C(O)O[C@@H]6COC(=O)c7cc(O)c(O)c(O)c7-c7c(cc(O)c(O)c7O)C(=O)O[C@H]6[C@@H]5OC(=O)c5cc(O)c(O)c(O)c5)cc(O)c(O)c4O)c(O)c(O)c3-c3c(cc(O)c(O)c3O)C(=O)O[C@H]2[C@H](OC(=O)c2cc(O)c(O)c(O)c2)[C@H]1OC(=O)c1cc(O)c(O)c(O)c1)c1cc(O)c(O)c(O)c1 (stereo partly drawn)	pIC50	7.00
O=C(OC1O[C@@H]2COC(=O)c3cc(O)c(O)c(O)c3-c3c(cc(O)c(O)c3O)C(=O)O[C@H]2[C@H](OC(=O)c2cc(O)c(O)c(O)c2)[C@H]1OC(=O)c1cc(O)c(O)c(O)c1)c1cc(O)c(O)c(O)c1 (stereo partly drawn)	pIC50	6.70

Please look at the following compound next.
What does the data say about its pIC50? Entry: `O=c1oc2c(Oc3ccc(O)c(O)c3O)c(O)cc3c(=O)oc4c(O)c(O)cc1c4c23`
5.62

----------
tested on: AGE formation in human serum albumin (HSA)/glucose or fructose; assay: Inhibitory effect on AGE formation (HSA with glucose or fructose, fluorescence); format: biochemical; settings: HSA/glucose, 60 °C, 40 h; means ± SE (n = 3); read-out: Inhibitory Effects on AGE Formation IC50, Glucose
// pIC50 lookup, one value per entry
Hey, just a heads up that pIC50 is the negative log base 10 of the concentration in molar.

Smiles text	pIC50
O=C(O[C@@H]1O[C@H](CO)[C@@H](O)[C@H](OC(=O)c2cc(O)c(O)c(O)c2)[C@H]1OC(=O)c1cc(O)c(O)c(O)c1)c1cc(O)c(O)c(O)c1	6.40

Please look at the following compound next.
What does the data say about its pIC50? Entry: `O=C(OC[C@H]1O[C@@H](O)[C@H](OC(=O)c2cc(O)c(O)c(O)c2)[C@@H](OC(=O)c2cc(O)c(O)c(O)c2)[C@@H]1O)c1cc(O)c(O)c(O)c1`
6.52

----------
tested on: AGE formation in human serum albumin (HSA)/glucose or fructose; experiment: Inhibitory effect on AGE formation (HSA with glucose or fructose, fluorescence); format: biochemical; details: HSA/fructose, 60 °C, 40 h; means ± SE (n = 3); read-out: Inhibitory Effects on AGE Formation IC50, Fructose
// pIC50 lookup, one value per entry
Hey, just a heads up that pIC50 is the negative log base 10 of the concentration in molar.

Take a look at these entries with their results.
Compound	Endpoint	Endpoint value
O=C(OC[C@H]1O[C@@H](O)[C@H](OC(=O)c2cc(O)c(O)c(O)c2)[C@@H](O)[C@@H]1O)c1cc(O)c(O)c(O)c1 [Compound 1, 2,6-di-O-galloyl-β-D-glucose]	pIC50	5.48
O=C(OC[C@H]1O[C@@H](O)[C@H](OC(=O)c2cc(O)c(O)c(O)c2)[C@@H](OC(=O)c2cc(O)c(O)c(O)c2)[C@@H]1O)c1cc(O)c(O)c(O)c1 [Compound 4, 2,3,6-tri-O-galloyl-β-D-glucose]	pIC50	6.00

Please look at the following compound next.
What does the data say about its pIC50? Entry: O=C(OC[C@H]1O[C@@H](OC(=O)c2cc(O)c(O)c(O)c2)[C@H](OC(=O)c2cc(O)c(O)c(O)c2)[C@@H](OC(=O)c2cc(O)c(O)c(O)c2)[C@@H]1OC(=O)c1cc(O)c(O)c(O)c1)c1cc(O)c(O)c(O)c1 [1,2,3,4,6-Penta-O-galloyl-β-D-glucose, reference compound]
6.70
